# target.system: T1, human tumor necrosis factor-α (rHuTNF-alpha, Biosource) (human, UniProt P01375 77-233)
# T1 construct: Bought recombinant protein coated on ELISA plates; The TNFα of the Biacore assay is not described further; also called TNFα; human TNFα
# T1 sequence (P01375 77-233 limits assumed): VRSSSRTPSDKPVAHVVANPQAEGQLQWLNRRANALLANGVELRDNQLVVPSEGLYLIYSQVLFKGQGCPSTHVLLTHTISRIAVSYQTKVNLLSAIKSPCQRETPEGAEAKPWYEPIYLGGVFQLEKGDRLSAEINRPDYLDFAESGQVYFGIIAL
# assay.summary: solid-phase ELISA, Fab lysate on coated rHuTNF-alpha
# Method: The Fab libraries were cloned into pTrcHis2A (Cat. No. V365-20, Invitrogen, Carlsbad, Calif.). Proteins were expressed in E. coli and solid-phase ELISA was used to assess Fab binding to human TNFα. […] Substrate development was stopped by addition of 100 μL/well TMB Stop Solution (Cat. No. 50-85-05, KPL, Gaithersburg, Md.) and the absorbance was measured at 450 nm via an automated plate spectrophotometer.

{"binder": "SEQ ID NO 159 (Fab, V domains shown, Fab, E. coli lysate) VH: EVQLVESGGGLVQPGGSLRLSCAASGFIFSNHWMNWVRQAPGKGLEWIGEIRSKSIYSATSYAESVKGRFIISRDGNGTSLTLEMNSLKTEDTAEYYCARNYYGSTYDYWGQGTLVTVS VL: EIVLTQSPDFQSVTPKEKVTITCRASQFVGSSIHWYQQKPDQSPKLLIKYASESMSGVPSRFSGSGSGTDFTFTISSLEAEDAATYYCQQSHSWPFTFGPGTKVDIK", "binding result": "binds"}
{"binder": "SEQ ID NO 18 (Fab, V domains shown, Fab, E. coli lysate) VH: EVQLVESGGGLVQPGGSLRLSCRASQFTFSNHYMNWVRQAPGKGLEWIGEIRSKSSNGATSYAESVKGRFIISRDGNGNSLTLEMNSLKTEDTAEYYCARNYYGSTYDYWGQGTLVTVS VL: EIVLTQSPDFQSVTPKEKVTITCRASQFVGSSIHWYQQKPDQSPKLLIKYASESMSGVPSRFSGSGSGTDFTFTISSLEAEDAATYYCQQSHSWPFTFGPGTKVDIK", "binding result": "binds"}
{"binder": "SEQ ID NO 140 (Fab, V domains shown, Fab, E. coli lysate) VH: EVQLTESGGGLVQPGGSLRLSCAASGSTFSNHYMNWVRQAPGKGLEWIGEIRSKSSNSATHYAESVKGRFIISRDDNGTSLYLEMNSLKTEDTAEYYCARNYYGSTYDYWGQGTLVTVS VL: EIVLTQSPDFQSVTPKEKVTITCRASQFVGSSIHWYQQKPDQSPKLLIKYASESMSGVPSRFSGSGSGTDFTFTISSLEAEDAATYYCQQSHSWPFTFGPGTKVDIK", "binding result": "binds"}
